# measured on: T1, mouse LTβR extracellular domain fused with an Fc fragment at the C-terminus (mouse, UniProt P50284 31-223)
# T1 construct: extracellular domain; Bought; also called mLTβR; not shown: Fc fragment at the C-terminus
# assay info: ELISA on coated target-Fc
property: EC50
Please provide the amount together with its unit, number first.

Asked: Entry LIGHT-60 (ligand, Printed mutations: S160G, T161G, L220S, E222S; Soluble protein carries an N-terminal His tag) DGPAGSWEQLIQERRSHEVNPAAHLTGANSSLTGSGGPLLWETQLGLAFLRGLSYHDGALVVTKAGYYYIYSKVQLGGVGCPLGLAGGITHGLYKRTPRYPEELELLVSQQSPCGRATSSSRVWWDSSFLGGVVHLEAGEKVVVRVSDSRLVRLRDGTRSYFGAFMV : reported EC50 = ?
Given back: 0.63 nM

Asked: Then this binder: LIGHT-52 (ligand, Printed mutations: L220S; Soluble protein carries an N-terminal His tag) DGPAGSWEQLIQERRSHEVNPAAHLTGANSSLTGSGGPLLWETQLGLAFLRGLSYHDGALVVTKAGYYYIYSKVQLGGVGCPLGLASTITHGLYKRTPRYPEELELLVSQQSPCGRATSSSRVWWDSSFLGGVVHLEAGEKVVVRVSDERLVRLRDGTRSYFGAFMV
Given back: 2.07 nM

Asked: Then this binder: LIGHT-89 (ligand, Soluble protein carries an N-terminal His tag) DGPAGSWEQLIQERRSHEVNPTAHLTGANSSLTGSGGPLLWETQLGLAFLRGLSYHDGALVVTKAGYYYIYSKVQLRGVGCPLGLARTITHGLYKRTPRYLEELELLVSQQSPCGRATSSSRVWQDSSFLGGVVHLEAGEKVVVRVLDERLVRLLDGTRSYFGAFMV
Given back: 0.503 nM

Asked: Then this binder: LIGHT-61 (ligand, Printed mutations: S160G, T161P, L220S, E222S; Soluble protein carries an N-terminal His tag) DGPAGSWEQLIQERRSHEVNPAAHLTGANSSLTGSGGPLLWETQLGLAFLRGLSYHDGALVVTKAGYYYIYSKVQLGGVGCPLGLAGPITHGLYKRTPRYPEELELLVSQQSPCGRATSSSRVWWDSSFLGGVVHLEAGEKVVVRVSDSRLVRLRDGTRSYFGAFMV
Given back: 0.498 nM

Asked: Then this binder: LIGHT-58 (ligand, Printed mutations: S160G, T161G, L220S; Soluble protein carries an N-terminal His tag) DGPAGSWEQLIQERRSHEVNPAAHLTGANSSLTGSGGPLLWETQLGLAFLRGLSYHDGALVVTKAGYYYIYSKVQLGGVGCPLGLAGGITHGLYKRTPRYPEELELLVSQQSPCGRATSSSRVWWDSSFLGGVVHLEAGEKVVVRVSDERLVRLRDGTRSYFGAFMV
Given back: 0.273 nM

Asked: Then this binder: LIGHT-90 (ligand, Printed mutations: S160G, T161G, L220T, E222S; Soluble protein carries an N-terminal His tag) DGPAGSWEQLIQERRSHEVNPAAHLTGANSSLTGSGGPLLWETQLGLAFLRGLSYHDGALVVTKAGYYYIYSKVQLGGVGCPLGLAGGITHGLYKRTPRYPEELELLVSQQSPCGRATSSSRVWWDSSFLGGVVHLEAGEKVVVRVTDSRLVRLRDGTRSYFGAFMV
Given back: 0.978 nM

Asked: Then this binder: LIGHT-88 (ligand, Printed mutations: A95T, G150R, S160R, P174L, W198Q, L220S, R228L; Soluble protein carries an N-terminal His tag) DGPAGSWEQLIQERRSHEVNPTAHLTGANSSLTGSGGPLLWETQLGLAFLRGLSYHDGALVVTKAGYYYIYSKVQLRGVGCPLGLARTITHGLYKRTPRYLEELELLVSQQSPCGRATSSSRVWQDSSFLGGVVHLEAGEKVVVRVSDERLVRLLDGTRSYFGAFMV
Given back: 0.262 nM

Asked: Then this binder: LIGHT-87 (ligand, Printed mutations: G150R, S160R, W198Q, L220S, R228L; Soluble protein carries an N-terminal His tag) DGPAGSWEQLIQERRSHEVNPAAHLTGANSSLTGSGGPLLWETQLGLAFLRGLSYHDGALVVTKAGYYYIYSKVQLRGVGCPLGLARTITHGLYKRTPRYPEELELLVSQQSPCGRATSSSRVWQDSSFLGGVVHLEAGEKVVVRVSDERLVRLLDGTRSYFGAFMV
Given back: 0.315 nM

Asked: Then this binder: LIGHT-86 (ligand, Printed mutations: G150R, S160R, L220S; Soluble protein carries an N-terminal His tag) DGPAGSWEQLIQERRSHEVNPAAHLTGANSSLTGSGGPLLWETQLGLAFLRGLSYHDGALVVTKAGYYYIYSKVQLRGVGCPLGLARTITHGLYKRTPRYPEELELLVSQQSPCGRATSSSRVWWDSSFLGGVVHLEAGEKVVVRVSDERLVRLRDGTRSYFGAFMV
Given back: 0.327 nM

Asked: Then this binder: LIGHT-1 (ligand, Printed mutations: V152M, W198Q, R228L; Soluble protein carries an N-terminal His tag) DGPAGSWEQLIQERRSHEVNPAAHLTGANSSLTGSGGPLLWETQLGLAFLRGLSYHDGALVVTKAGYYYIYSKVQLGGMGCPLGLASTITHGLYKRTPRYPEELELLVSQQSPCGRATSSSRVWQDSSFLGGVVHLEAGEKVVVRVLDERLVRLLDGTRSYFGAFMV
Given back: 0.8 nM

Asked: Then this binder: LIGHT (74-240) (ligand, Soluble protein carries an N-terminal His tag; also called wild-type human LIGHT; LIGHT (74-240) (wt)) DGPAGSWEQLIQERRSHEVNPAAHLTGANSSLTGSGGPLLWETQLGLAFLRGLSYHDGALVVTKAGYYYIYSKVQLGGVGCPLGLASTITHGLYKRTPRYPEELELLVSQQSPCGRATSSSRVWWDSSFLGGVVHLEAGEKVVVRVLDERLVRLRDGTRSYFGAFMV
Given back: 0.885 nM

Asked: Then this binder: LIGHT-2 (ligand, Printed mutations: R189S, W198Q, R228L; Soluble protein carries an N-terminal His tag) DGPAGSWEQLIQERRSHEVNPAAHLTGANSSLTGSGGPLLWETQLGLAFLRGLSYHDGALVVTKAGYYYIYSKVQLGGVGCPLGLASTITHGLYKRTPRYPEELELLVSQQSPCGSATSSSRVWQDSSFLGGVVHLEAGEKVVVRVLDERLVRLLDGTRSYFGAFMV
Given back: 2.06 nM

Source of measurements: patent US20250361288A1
